Consider the following molecules; for each one, report its Inhibition (%) of NOX activity.
# Tested on: NOX activity
# assayInfo: Amplex Red measurement of extracellular hydrogen peroxide (NOX activity) using DMSO-differentiated HL60 cells
# Assay type: cell-based, human
# measurementSetup: Amplex red, DMSO-differentiated HL60 cells; compound concentration not stated
# Experimental: Human acute myeloid leukemia cell line HL-60 was cultured in RPMI 1640 (Invitrogen) supplemented with 10% heat-inactivated calf serum, 2 mM glutamine, 100 U/mL penicillin (Sigma), and 100 μg streptomycin (Sigma) at 37° C. under a humidified atmosphere of 5% CO2. HL60 differentiation to the neutrophil phenotype was triggered by adding Me2SO (final concentration 1.25% v/v for 6 days) to the culture medium. Extracellular hydrogen peroxide was measured using Amplex UltraRed (Molecular Probes). […]
Numeric only. Scale: %

Q: Please look up its Inhibition (%) of NOX activity: COCCn1c(CN2CCCC2)c2c(=O)n(Cc3ccccc3)[nH]c2cc1=O
A: 82

Q: I have this molecule here, CCCCc1c2c(=O)n(-c3ccc(OCc4ccccc4)cc3)[nH]c2cc(=O)n1Cc1ccc(Cl)cc1 , and I need its recorded Inhibition (%) of NOX activity.
A: 69

Q: Entry COc1cccc(CN(C)Cc2c3c(=O)n(-c4ccccc4Cl)[nH]c3cc(=O)n2C)c1 has what Inhibition (%) of NOX activity?
A: 82

Q: I have this molecule here, O=c1c2c(COCc3ccccc3)n(CC3CCCNC3)c(=O)cc2[nH]n1-c1ccccc1Cl (stereo not shown) , and I need its recorded Inhibition (%) of NOX activity.
A: 80
